Each recorded value in this set is attributed to PubChem BioAssay AID651814.

# TEST TARGET: DNA dC->dU-editing enzyme APOBEC-3F (Homo sapiens)
# ASSAY OVERVIEW: qHTS for inhibitors of Vif-A3F interactions: Cherry picks;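 also: % of control where 0% means no effect; active compounds raise eYFP fluorescence by blocking Vif-driven A3F loss; nearly all actives have a fitted effect of over 70% in size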
# EXPERIMENTAL SETUP: HeLa A3F-eYFP + Vif (tagged APOBEC3F with the HIV-1 protein that degrades it), eYFP fluorescence, 24 h
In all, about 2,100 compounds went through this assay and about 590 (28%) were called active. Not shown: some 42% with an inconclusive outcome. Some of the results follow.
MEASURED PARAMETER: max response (%)
// units = %; emit number, no label

Incoming: Consider the compound "CCN(CC)c1nc(C)c(C(=S)Nc2cc([N+](=O)[O-])ccc2Cl)s1" and give its recorded max response.
Outgoing: -3.83

Incoming: Specify reported max response for the compound shown: "CCOC(=O)N1CCC(Nc2nc3ccccc3n3nnnc23)CC1"
Outgoing: -9.96

Incoming: Report measured max response; entry is "COC(=O)c1cc(Nc2nc3ccccc3nc2NS(=O)(=O)c2ccc(C)cc2)ccc1Cl"
Outgoing: -5.41

Incoming: Item "COc1ccc(CCNC(=O)CC2(CC3=NS(=O)(=O)c4ccccc4N3)CCCC2)cc1OC" : provide max response
Outgoing: -0.97

Incoming: Give the value of max response reported for the following: "Oc1ccc(C=NNC(=S)Nc2ccc(F)cc2)c(O)c1"
Outgoing: -2.9

Incoming: Give max response for the following compound: CC(C)C1C(=O)N(Cc2cn(CCC3OCCCO3)nn2)CCS(=O)(=O)N1Cc1ccc(-c2cccc(CO)c2)cc1 (stereo not drawn)
Outgoing: -10.5

Incoming: Identify the reported max response for the following entry. "COC(=O)c1sc(NC(=O)c2ccc([N+](=O)[O-])o2)c(C#N)c1C"
Outgoing: -29.9

Incoming: Indicate its recorded max response; the compound in question is "c1ccc(Nc2nc(-c3ccccn3)cs2)cc1"
Outgoing: -4.92

Incoming: Return max response for the following compound: "COc1ccc(/C=C2\Oc3cc(OC(=O)N4CCOCC4)ccc3C2=O)c(OC)c1"
Outgoing: -13.8

Incoming: Given the compound "CC(C)(C)c1ccc(Oc2ccc(NC(=O)c3ccccc3C(=O)O)cn2)cc1" , write its reported max response.
Outgoing: 1.93

Incoming: Using the record for "O=C(NC(=S)N1CCN(C2CCCCC2)CC1)c1ccccc1" , state its measured max response.
Outgoing: 3.13

Incoming: Name the recorded max response of the compound listed here: "CCCCN(C(=O)c1ccc([N+](=O)[O-])s1)c1c(N)n(CCCC)c(=O)[nH]c1=O"
Outgoing: 3.55

Incoming: For the compound "O=C1c2cccc3c([N+](=O)[O-])ccc(c23)C(=O)N1c1ccccn1" , give its reported max response.
Outgoing: -0.304

Incoming: Report max response for CC(NC1=CC(=O)c2cccnc2C1=O)C(O)c1ccccc1 (stereo not drawn)
Outgoing: -27.2

Incoming: Give reported max response value for CCCOc1ccc(NC(=O)CC2C(=O)N(c3ccc(OCC)cc3)C(=S)N2C2CC2)cc1 (stereo not drawn)
Outgoing: -28

Incoming: Quickly give me recorded max response for "O=C(NC(=S)Nc1ccc(N2CCCCC2)c(Cl)c1)c1ccc2c(c1)OCCO2"
Outgoing: -28.8

Incoming: Check the records and state max response for "O=C1/C(=C\c2ccc(O)cc2)SC(=S)N1Cc1ccccc1"
Outgoing: -2.14

Incoming: Supply recorded max response for CC1CC(=O)C2=C(C1)OC(N)=C(C#N)C2c1coc2ccccc2c1=O (stereo not drawn) here.
Outgoing: -25.1

Incoming: Determine its reported max response: "C/C(=N\NC(=S)NCc1ccccc1)c1cccs1"
Outgoing: -3.71

Incoming: For the compound COc1ccc(S(=O)(=O)N2c3ccccc3OCC2CC(=O)O)cc1 (stereo not drawn) , give its reported max response.
Outgoing: -27.6

Incoming: Determine from records and report max response for "C=CCSc1nc2sc3c(c2c(=O)n1CC)CCC3"
Outgoing: -3.63

Incoming: Recall and state the measured max response for "CCOc1cc([N+](=O)[O-])cc2c1C(=O)Nc1ccccc1O2" .
Outgoing: -12

Incoming: Please supply the value of reported max response for the item "COc1ccc(NC(=O)c2ccc(NC(=O)C(C)C)cc2)c([N+](=O)[O-])c1"
Outgoing: -19.6

Incoming: // Input: "CC(C)(C)C(=O)/C(=C/c1ccc(Cl)cc1)n1cncn1" . Output its max response only.
Outgoing: -2.57

Incoming: Identify measured max response associated with "O=C(/C=C/c1ccccc1)Nc1ncn[nH]1"
Outgoing: -21.2

Incoming: Fill in reported max response for this entry: "CC(=O)Oc1ccc(N2C(=O)c3cccc4c([N+](=O)[O-])ccc(c34)C2=O)cc1"
Outgoing: -15.1

Incoming: Give the value of max response reported for the following: "COc1ccc(C(=O)c2cc([N+](=O)[O-])ccc2N2CCCC2)cc1"
Outgoing: -19.8

Incoming: Input "c1ccc2c(c1)nc(N1CCOCC1)c1nnnn12" , output reported max response.
Outgoing: -7.94

Incoming: Please look at this compound and report its max response: CC1C/C(=N\NC(N)=S)c2cc(Cl)ccc2S1 (stereo not drawn)
Outgoing: -5.07

Incoming: Provide measured max response value, entry: "CCOC(=O)c1ccc(Nc2nc3ccccc3nc2NS(=O)(=O)c2ccc(Cl)cc2)cc1"
Outgoing: -8.48

Incoming: Please report the measured max response for "COc1ccc2nc(NC(=S)NC(=O)c3ccco3)sc2c1"
Outgoing: -0.262

Incoming: Answer with reported max response of "CO/N=C/c1ccc(OC)c(Oc2nc(OC)cc(OC)n2)c1"
Outgoing: -21.4

Incoming: Give max response for "O=C(Nc1nc2ccccc2s1)c1ccc([N+](=O)[O-])o1"
Outgoing: -26.2

Incoming: For the compound "COc1cc(/C=C2\SC(=S)N(NC(=O)c3ccccc3OC)C2=O)ccc1O" , report max response.
Outgoing: -7.76

Incoming: Give reported max response value for "Cc1cc2nc(SCCOC(=O)Nc3cccc(Cl)c3)nc(C)c2cc1C"
Outgoing: 3.73

Incoming: Please report the measured max response for CCCC(=O)NC(c1ccc(OC)cc1)c1ccc2cccnc2c1O (stereo not drawn)
Outgoing: 0.49

Incoming: Give the measured max response for "COc1ccc(-n2cc3c(-c4cccc(Br)c4)nnc(C)c3n2)cc1"
Outgoing: -1.46

Incoming: Please give the documented max response of COc1ccc(C(=O)C(C)[n+]2ccc(C)c3ccccc32)cc1[N+](=O)[O-] (stereo not drawn)
Outgoing: 1.15

Incoming: // Input: "COc1cc(C=C2C(=O)c3ccccc3C2=O)cc(OC)c1OC" . Output its max response only.
Outgoing: -7.21

Incoming: Fill in reported max response for this entry: "COc1cc(CNCCSc2nnnn2C)ccc1OCc1c(F)cccc1Cl"
Outgoing: -4.2

Incoming: Indicate its recorded max response; the compound in question is "COc1ccc2nc3sc(C(=O)Nc4cc(Cl)c(OC)cc4OC)cc3cc2c1"
Outgoing: -28.2

Incoming: Output max response of "O=C(O)CSc1cc(NS(=O)(=O)c2cccc([N+](=O)[O-])c2)c2ccccc2c1O"
Outgoing: -12.8

Incoming: Retrieve max response measured for "CC[n+]1ccc(/C=C2\Sc3ccccc3N2CCCS(=O)(=O)[O-])c2ccccc21" and print it.
Outgoing: -17.2
